- Tested Target: Protein kinase C alpha type (Homo sapiens) (UniProt P17252)
- Assay Explanation: Displacement of [3H]PDBu from protein kinase C alpha at 100 uM; Range 80 to 100
Measurement Label: inhibition (%)
Unit % implied. Number only.

CC(=O)OC[C@@]1(CO)OC(=O)c2c(OCCCCCCCCCCCCCCOc3cccc4c3C(=O)O[C@]4(CO)COC(C)=O)cccc21 = 90
CC(=O)OC[C@@]1(CO)OC(=O)c2c(OCCCCCCCCCCCCCOc3cccc4c3C(=O)O[C@]4(CO)COC(C)=O)cccc21 = 85
CCCCCCCCCCCC(=O)OC[C@@]1(CO)OC(=O)c2c(OCc3ccccc3)cccc21 = 90
CC(=O)OC[C@@]1(CO)OC(=O)c2c(OCCCCCCCCCCCCCCCOc3cccc4c3C(=O)O[C@]4(CO)COC(C)=O)cccc21 = 92

Which measured inhibition belongs to CC(=O)OC[C@@]1(CO)OC(=O)c2c(OCCCCCCCCCCCCCCCCOc3cccc4c3C(=O)O[C@]4(CO)COC(C)=O)cccc21 , tested on Protein kinase C alpha type (Homo sapiens) (UniProt P17252)?
91
